Please respond with reported kon for every item in the list.
biological target: biotinylated recombinant human CLL-1 extracellular domain protein, isoform with glutamine at amino acid position 244 (human) (UniProt Q5QGZ9); assay: BLItz, 1:1 model (Q244 per FIG. 12B)
Sequence (Q5QGZ9 65-265): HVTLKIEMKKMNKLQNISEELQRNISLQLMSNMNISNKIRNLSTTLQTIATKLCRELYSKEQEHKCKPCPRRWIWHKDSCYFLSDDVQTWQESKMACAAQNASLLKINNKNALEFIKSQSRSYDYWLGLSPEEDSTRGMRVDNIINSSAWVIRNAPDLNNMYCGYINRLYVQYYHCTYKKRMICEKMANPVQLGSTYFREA
Provide only the numeric value, understood in M⁻¹ s⁻¹.

Which kon value is on record for Anti-CLL-1 Binder Clone 6 (scFv, not shown: small tags and cut ends) scFv: QSVLTQPPSVSAAPGQKVSIFCSGGSSNIGKNYVSWYQQLPGTAPKLLIYENQHRPSGIPDRFSGSKSGTSATLGITGLQTGDEADYYCATWDDSLSAGVFGGGTELTVLGGGGSGGGGSGGGGSQLVQSGAEVRKPGESLKISCKGSGYSFTSYWIGWVRQMPGKGLEWMGFIYPGDSDTRYSPSFQGQVTISADKSISTAYLQRSSLKASDTAMYYCARLGGYSGYDSEVFYLDYWGQGTTVTVSS ?
27000

Check Anti-CLL-1 Binder Clone 11 (scFv, not shown: small tags and cut ends) scFv: QSVLTQPASVSGSPGQSITISCTGTSSDVGASNSVSWYQRHPGKPPKLMIYDVSNRPSGISNRFSGSKSGNTASLTISGLQSEDEADYYCSSYTGSSTFVVFGGGTQLIILGGGGSGGGGSGGGGSEVQLVESGGGVVQPGGSLRLSCAASGFTFSSYWMSWVRQAPGKGLEWVANIRQDGSEKYYVDSVKGRFTISRDNAKNSLYLQMNSLRAEDAAVYYCAREQDTAMVAFDYWGQGTLVTVSS too.
59000

Check Anti-CLL-1 Binder Clone 10 (scFv, not shown: small tags and cut ends) scFv: DIQMTQSPSFLSASVGDRVTITCRASQGISSYLAWYQQKPGKAPKLLIYSASSLQSGVPSRFSGSGSGTDFTLTISSLQPEDFATYYCQQSYNSPTFGQGTRLEIKGGGGSGGGGSGGGGSQVQLVQSGAEVKKPGASVKVSCKASGYTFTGYYMHWVRQAPGQGLEWMGWMNPNSGNTGYAQKFQGRVTMTRNTSISTAYLELTSLTSDDTAVYYCARGDTGDFFDHWGQGTLVTVSS too.
62000

Check Anti-CLL-1 Binder Clone 4 (scFv, not shown: small tags and cut ends) scFv: QSVVTQPPSVSAAPGQKVTISCSGSSPNIGKNYVSWYQQLPGTAPKLLIYDNNKRPSGIPDRFSGSKSGTSATLGITGLQTGDEADYYCGTWDSSLSGYVFGTGTKVTVLGGGGSGGGGSGGGGSQVQLVESGGGVVQPGRSLRLSCAASGFTFSSYGMHWVRQAPGKGLEWVAFISHDGSNKYYADSVKGRSTISRDNSKSTLFLQMNSLRDEDTAVYFCAREGQLTTSWDFFDYWGHGTLVTVSS too.
43000

Check Anti-CLL-1 Binder Clone 38 (scFv, not shown: small tags and cut ends) scFv: DIQMTQSPSTLSASVGDRVTITCRASQSISSWLAWYQQKPGKAPKLLIYTASSLQSGVPSRFSGSESGTDFTLTISSLQPEDFATYYCQQSYSTPLTFGGGTKVDIKGGGGSGGGGSGGGGSQVQLVQSGAEVKKPGASVKVSCKASGYTFTGYYMHWVRQAPGQGLEWMGWINPNSGGTNYAQKFQGRVTLTRDTSITTAYLELTSLTSDDTAVYYCARGDTGDFFDHWGQGTLVTVSS too.
69000
